accumulated amount of pregnenolone for assorted molecules
Target: CYP11A (Homo sapiens)
Construct: A 1.45-kb CYP11A1 gene fragment amplified as a result of the above-described reaction; expressed in transfected cells; host or cells: Escherichia coli BL21(DE3), plasmid pCYP11A-ARX (strain BL21CYP11)
Experiment: Conversion reaction of substrates by CYP11A-expressing Escherichia coli
Type: cell-based
Details: same reaction as Example 6
Note: a bare number is incomplete; add the unit.

Example molecules with recorded accumulated amount of pregnenolone:
molecule	target.desc	accumulated amount of pregnenolone
CC(C)CCC[C@](C)(O)[C@H]1CC[C@H]2[C@@H]3CC=C4C[C@@H](O)CC[C@]4(C)[C@H]3CC[C@@]21C [(20S)-20-hydroxy-cholesterol]	CYP11A (Homo sapiens)	16.3 mg/L
CC(C)CC[C@@H](O)[C@](C)(O)[C@H]1CC[C@H]2[C@@H]3CC=C4C[C@@H](O)CC[C@]4(C)[C@H]3CC[C@]12C [(20R,22R)-20,22-dihydroxy-cholesterol]	CYP11A (Homo sapiens)	32.3 mg/L
CC(C)CC[C@@H](O)[C@@H](C)[C@H]1CC[C@H]2[C@@H]3CC=C4C[C@@H](O)CC[C@]4(C)[C@H]3CC[C@]12C [(22R)-22-hydroxy-cholesterol]	CYP11A (Homo sapiens)	28.0 mg/L

Now look at this one.
Request: Can you look up the measured accumulated amount of pregnenolone of CC(C)CC[C@H](O)[C@@H](C)[C@H]1CC[C@H]2[C@@H]3CC=C4C[C@@H](O)CC[C@]4(C)[C@H]3CC[C@]12C [(22S)-22-hydroxy-cholesterol] for me?
Response: 6.1 mg/L

----------
This section presents molecules with their documented added substrate remained values.
Target: CYP11A (Homo sapiens, UniProt P05108)
Construct: A 1.45-kb CYP11A1 gene fragment amplified as a result of the above-described reaction; expressed in transfected cells; host or cells: Escherichia coli BL21(DE3), plasmid pCYP11A-ARX (strain BL21CYP11)
Sequence (P05108 40-521): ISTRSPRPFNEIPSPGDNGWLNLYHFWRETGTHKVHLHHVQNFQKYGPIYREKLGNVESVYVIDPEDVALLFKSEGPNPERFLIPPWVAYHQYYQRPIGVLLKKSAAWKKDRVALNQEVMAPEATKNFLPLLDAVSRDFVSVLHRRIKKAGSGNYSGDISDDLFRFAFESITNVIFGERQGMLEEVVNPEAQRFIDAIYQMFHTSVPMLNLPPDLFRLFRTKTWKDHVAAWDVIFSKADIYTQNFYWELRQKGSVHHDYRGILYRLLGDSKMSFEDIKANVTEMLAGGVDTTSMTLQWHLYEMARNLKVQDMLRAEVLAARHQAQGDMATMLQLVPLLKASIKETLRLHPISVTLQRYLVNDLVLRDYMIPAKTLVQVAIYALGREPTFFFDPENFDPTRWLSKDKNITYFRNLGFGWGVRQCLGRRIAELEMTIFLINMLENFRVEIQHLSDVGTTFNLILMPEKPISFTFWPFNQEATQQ
Experiment: Conversion reaction of substrates by CYP11A-expressing Escherichia coli
Assay type: cell-based
Conditions: same reaction as Example 6
Numeric answer only, unit % assumed.

molecule	measurement.unit	experimental.result
CC(C)CC[C@@H](O)[C@](C)(O)[C@H]1CC[C@H]2[C@@H]3CCC4=CC(=O)CC[C@]4(C)[C@H]3CC[C@]12C	%	95
CC(C)CC[C@H](O)[C@](C)(O)[C@H]1CC[C@H]2[C@@H]3CCC4=CC(=O)CC[C@]4(C)[C@H]3CC[C@]12C	%	100
CC(C)=CCC[C@@H](C)[C@H]1CC[C@H]2[C@@H]3CC=C4C[C@@H](O)CC[C@]4(C)[C@H]3CC[C@]12C	%	99.6
CC(C)[C@@H](C)/C=C/[C@@H](C)[C@H]1CC[C@H]2C3=CC=C4C[C@@H](O)CC[C@]4(C)[C@H]3CC[C@]12C	%	100
CC[C@H](/C=C/[C@@H](C)[C@H]1CC[C@H]2[C@@H]3CC=C4C[C@@H](O)CC[C@]4(C)[C@H]3CC[C@]12C)C(C)C	%	100

Request: Request the reported added substrate remained associated with CC(C)CC[C@H](O)[C@@H](C)[C@H]1CC[C@H]2[C@@H]3CC=C4C[C@@H](O)CC[C@]4(C)[C@H]3CC[C@]12C [(22S)-22-hydroxy-cholesterol]
Response: 92.6

Request: Given the molecule CC(C)CC[C@@H](O)[C@@H](C)[C@H]1CC[C@H]2[C@@H]3CC=C4C[C@@H](O)CC[C@]4(C)[C@H]3CC[C@]12C [(22R)-22-hydroxy-cholesterol] , what is its reported added substrate remained?
Response: 78.6

Request: Please give the measured added substrate remained for this molecule: CC(C)CCC[C@@H](C)[C@H]1CC[C@H]2[C@@H]3CC=C4C[C@@H](O)CC[C@]4(C)[C@H]3CC[C@]12C
Response: 99

Request: Query (molecule): CC(C)CC[C@@H](O)[C@](C)(O)[C@H]1CC[C@H]2[C@@H]3CC=C4C[C@@H](O)CC[C@]4(C)[C@H]3CC[C@]12C [(20R,22R)-20,22-dihydroxy-cholesterol] ; field requested: added substrate remained
Response: 51.6

----------
accumulated amount of pregnenolone overview
Test system: CYP204A1
Conditions: strain BP172, same reaction as Example 6
Please state the figure in mg/L; there is no need to write the unit.

Guide cases for accumulated amount of pregnenolone, answers given:
compound	measurement.unit	accumulated amount of pregnenolone
CC(C)CC[C@@H](O)[C@](C)(O)[C@H]1CC[C@H]2[C@@H]3CC=C4C[C@@H](O)CC[C@]4(C)[C@H]3CC[C@]12C [(20R,22R)-20,22-dihydroxy-cholesterol]	mg/L	51.6
CC(C)CC[C@@H](O)[C@@H](C)[C@H]1CC[C@H]2[C@@H]3CC=C4C[C@@H](O)CC[C@]4(C)[C@H]3CC[C@]12C [(22R)-22-hydroxy-cholesterol]	mg/L	69.5
CC(C)CC[C@H](O)[C@@H](C)[C@H]1CC[C@H]2[C@@H]3CC=C4C[C@@H](O)CC[C@]4(C)[C@H]3CC[C@]12C [(22S)-22-hydroxy-cholesterol]	mg/L	12.9

Request: Can you share its accumulated amount of pregnenolone? I mean this compound: CC(C)CCC[C@](C)(O)[C@H]1CC[C@H]2[C@@H]3CC=C4C[C@@H](O)CC[C@]4(C)[C@H]3CC[C@@]21C [(20S)-20-hydroxy-cholesterol]
Response: 68.2

----------
System: CYP204A1
Settings: strain BP172, same reaction as Example 6
Recorded added substrate remained values for a group of molecules are listed next.
The answer is to be given in %; state only the numeric part.

Example entries begin here.
molecule	added substrate remained / %
CC(C)CCC[C@](C)(O)[C@H]1CC[C@H]2[C@@H]3CC=C4C[C@@H](O)CC[C@]4(C)[C@H]3CC[C@@]21C [(20S)-20-hydroxy-cholesterol]	25.2
CC(C)CC[C@H](O)[C@@H](C)[C@H]1CC[C@H]2[C@@H]3CC=C4C[C@@H](O)CC[C@]4(C)[C@H]3CC[C@]12C [(22S)-22-hydroxy-cholesterol]	60.1
CC(C)CC[C@@H](O)[C@](C)(O)[C@H]1CC[C@H]2[C@@H]3CC=C4C[C@@H](O)CC[C@]4(C)[C@H]3CC[C@]12C [(20R,22R)-20,22-dihydroxy-cholesterol]	0

// next entry
Request: Query (molecule): CC(C)CC[C@@H](O)[C@@H](C)[C@H]1CC[C@H]2[C@@H]3CC=C4C[C@@H](O)CC[C@]4(C)[C@H]3CC[C@]12C [(22R)-22-hydroxy-cholesterol] ; field requested: added substrate remained
Response: 42.8

----------
# maps each entry to its Conversion rate
Tested on: CYPSS204A
Experiment: Conversion reaction of substrates by Escherichia coli expression strain BP215
Type: cell-based, Sphingomonas subterranea NBRC 16086
Settings: strain BP215, 28° C., 5 hours; to progesterone, pregnenolone or 7-dehydropregnenolone
Hi! Could you send only the number? It should be in %, unit omitted.

Examples from the recorded data:
molecule	property	experimental.result
CC(C)CCC[C@@H](C)[C@H]1CC[C@H]2C3=CC=C4C[C@@H](O)CC[C@]4(C)[C@H]3CC[C@]12C [7-dehydrocholesterol]	Conversion rate	34.3
CC(C)CC[C@H](O)[C@@H](C)[C@H]1CC[C@H]2[C@@H]3CC=C4C[C@@H](O)CC[C@]4(C)[C@H]3CC[C@]12C [(22S)-22-hydroxy-cholesterol]	Conversion rate	37.5
CC(C)CCC[C@](C)(O)[C@H]1CC[C@H]2[C@@H]3CCC4=CC(=O)CC[C@]4(C)[C@H]3CC[C@@]21C [(20S)-20-hydroxycholest-4-en-3-one]	Conversion rate	41.0
CC(C)CC[C@@H](O)[C@@H](C)[C@H]1CC[C@H]2[C@@H]3CCC4=CC(=O)CC[C@]4(C)[C@H]3CC[C@]12C [(22R)-22-hydroxycholest-4-en-3-one]	Conversion rate	42.3
CC(C)CCC[C@](C)(O)[C@H]1CC[C@H]2[C@@H]3CC=C4C[C@@H](O)CC[C@]4(C)[C@H]3CC[C@@]21C [(20S)-20-hydroxy-cholesterol]	Conversion rate	89.2
CC[C@H](/C=C/[C@@H](C)[C@H]1CC[C@H]2[C@@H]3CC=C4C[C@@H](O)CC[C@]4(C)[C@H]3CC[C@]12C)C(C)C [stigmasterol]	Conversion rate	5.8
CC(C)CC[C@@H](O)[C@@H](C)[C@H]1CC[C@H]2[C@@H]3CC=C4C[C@@H](O)CC[C@]4(C)[C@H]3CC[C@]12C [(22R)-22-hydroxy-cholesterol]	Conversion rate	80
CC(C)CCC[C@@H](C)[C@H]1CC[C@H]2[C@@H]3CC=C4C[C@@H](O)CC[C@]4(C)[C@H]3CC[C@]12C [cholesterol]	Conversion rate	68.2

We next turn to a different molecule, shown below.
Request: Using the record for CC(C)CC[C@@H](O)[C@](C)(O)[C@H]1CC[C@H]2[C@@H]3CCC4=CC(=O)CC[C@]4(C)[C@H]3CC[C@]12C , report its Conversion rate.
Response: 38.1
